test: Displacement of [3H]-di-o-tolylguanidine from sigma 2 receptor in rat liver membranes after 120 mins by scintillation counting analysis; assay type: cell membranes, Membrane
pKi: −log10 of the molar value.
Measured quantity: pKi

| Compound | pKi |
| --- | --- |
| FC(CNC1CCc2ccccc2CC1)Cc1ccccc1 (configuration not stated) | 7.85 |
| FC(CCc1ccccc1)CNC1CCc2ccccc2CC1 (configuration not stated) | 7.72 |

###

target: Glutamate receptor ionotropic, NMDA 2B (Homo sapiens, UniProt Q13224); experiment: Displacement of [3H]-ifenprodil from GluN2B receptor (unknown origin) expressed in mouse L (tk-) cell membranes after 120 mins by scintillation counting method
Sequence (Q13224 whole entry): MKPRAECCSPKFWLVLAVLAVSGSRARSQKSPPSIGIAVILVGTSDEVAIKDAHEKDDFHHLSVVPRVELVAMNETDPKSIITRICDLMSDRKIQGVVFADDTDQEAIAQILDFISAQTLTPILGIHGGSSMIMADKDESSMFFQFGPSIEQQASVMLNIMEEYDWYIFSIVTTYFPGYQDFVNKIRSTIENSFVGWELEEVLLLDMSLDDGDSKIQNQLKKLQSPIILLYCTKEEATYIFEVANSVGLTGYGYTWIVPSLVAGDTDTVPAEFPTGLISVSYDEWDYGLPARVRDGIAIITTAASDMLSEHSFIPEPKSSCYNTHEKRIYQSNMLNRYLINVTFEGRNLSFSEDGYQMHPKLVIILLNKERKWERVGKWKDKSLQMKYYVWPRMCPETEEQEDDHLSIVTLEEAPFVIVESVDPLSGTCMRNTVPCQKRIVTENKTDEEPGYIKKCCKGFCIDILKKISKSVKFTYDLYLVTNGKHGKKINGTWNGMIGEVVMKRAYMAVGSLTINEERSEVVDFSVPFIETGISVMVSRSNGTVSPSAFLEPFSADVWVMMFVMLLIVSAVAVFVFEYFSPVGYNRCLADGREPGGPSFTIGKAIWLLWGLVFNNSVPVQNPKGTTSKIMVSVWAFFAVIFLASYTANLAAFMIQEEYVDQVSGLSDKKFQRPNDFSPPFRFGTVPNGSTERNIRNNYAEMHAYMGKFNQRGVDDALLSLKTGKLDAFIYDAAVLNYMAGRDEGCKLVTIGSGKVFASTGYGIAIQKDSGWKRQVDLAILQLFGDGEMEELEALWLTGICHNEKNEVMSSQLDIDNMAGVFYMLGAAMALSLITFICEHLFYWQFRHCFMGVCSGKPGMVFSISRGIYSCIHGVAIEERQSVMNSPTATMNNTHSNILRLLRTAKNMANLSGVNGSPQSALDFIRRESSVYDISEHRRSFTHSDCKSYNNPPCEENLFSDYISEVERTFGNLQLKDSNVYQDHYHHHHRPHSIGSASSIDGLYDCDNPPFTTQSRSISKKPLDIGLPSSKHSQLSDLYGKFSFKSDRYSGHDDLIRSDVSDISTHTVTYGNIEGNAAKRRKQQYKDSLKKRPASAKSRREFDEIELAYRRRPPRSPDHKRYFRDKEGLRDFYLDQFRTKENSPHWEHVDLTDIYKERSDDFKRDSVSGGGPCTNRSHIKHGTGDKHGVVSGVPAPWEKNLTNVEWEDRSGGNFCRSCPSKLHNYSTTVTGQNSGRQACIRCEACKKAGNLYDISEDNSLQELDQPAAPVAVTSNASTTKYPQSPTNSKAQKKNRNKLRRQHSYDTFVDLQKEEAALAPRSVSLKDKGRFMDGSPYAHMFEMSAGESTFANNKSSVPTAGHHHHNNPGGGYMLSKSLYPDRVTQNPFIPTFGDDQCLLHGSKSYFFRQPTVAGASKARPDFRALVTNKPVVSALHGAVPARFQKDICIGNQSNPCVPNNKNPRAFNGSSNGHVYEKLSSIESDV
Measured quantity: Ki (nM)
Respond numerically; units are nM and should not be typed.

Incoming: What does the record list as Ki for FC(CCc1ccccc1)CNC1CCc2ccccc2CC1 (stereo unspecified) ?
Outgoing: 27

###

molecular target: Sigma non-opioid intracellular receptor 1 (Cavia porcellus)
Sequence (Q60492 whole entry): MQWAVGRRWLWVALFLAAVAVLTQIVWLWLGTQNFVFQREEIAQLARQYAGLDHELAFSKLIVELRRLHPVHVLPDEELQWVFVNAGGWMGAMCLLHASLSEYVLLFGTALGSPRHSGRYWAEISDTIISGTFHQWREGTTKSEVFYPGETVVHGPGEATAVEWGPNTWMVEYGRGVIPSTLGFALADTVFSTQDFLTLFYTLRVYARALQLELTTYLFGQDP
Measured quantity: Ki (nM)

1. FC(CCc1ccccc1)CNC1CCc2ccccc2CC1 (configuration not stated)
2. FC(CNC1CCc2ccccc2CC1)Cc1ccccc1 (configuration not stated)
Incoming: Hey, between 1 and 2 which has a smaller measured Ki? Please identify the chosen entry by its label.
Outgoing: 2
